pIC50 data for XO (Bos taurus) follow.
Entry type: numeric. Quantity: pIC50, the -log10 of concentration in molar units.

{"smilesData": "C=C(C)[C@@H]1CC[C@]2(C)CC[C@]3(C)[C@H](CC[C@@H]4[C@@]5(C)CC[C@H](O)C(C)(C)[C@@H]5CC[C@]43C)[C@@H]12", "pIC50": 3.96}

Consider now this further compound.
Q: Which pIC50 is reported with XO (Bos taurus) for this entry: `C=C(C)[C@@H]1CC[C@]2(CO)CC[C@]3(C)[C@H](CC[C@@H]4[C@@]5(C)CC[C@H](O)C(C)(C)[C@@H]5CC[C@]43C)[C@@H]12` ?
Result: 4.16

* * *

IC50 data for FAS from chicken liver (Gallus gallus) follow.
// units = µM; emit number, no label

{"compound": "C=C(C)[C@@H]1CC[C@]2(C)CC[C@]3(C)[C@H](CC[C@@H]4[C@@]5(C)CC[C@H](O)C(C)(C)[C@@H]5CC[C@]43C)[C@@H]12 [Compound 1, lupeol]", "IC50 (µM)": 98.3}
{"compound": "C=C(C)[C@@H]1CC[C@]2(CO)CC[C@]3(C)[C@H](CC[C@@H]4[C@@]5(C)CC[C@H](O)C(C)(C)[C@@H]5CC[C@]43C)[C@@H]12 [Compound 2, betulin]", "IC50 (µM)": 63.2}
{"compound": "O=c1cc(-c2ccc(O)c(-c3c(O)cc(O)c4c(=O)cc(-c5ccc(O)cc5)oc34)c2)oc2cc(O)cc(O)c12 [Compound 4, amentoflavone]", "IC50 (µM)": 75}

Consider now this further compound.
Q: Which IC50 is reported with FAS from chicken liver (Gallus gallus) for this entry: COc1ccc(-c2cc(=O)c3c(O)cc(O)c(-c4cc(-c5cc(=O)c6c(O)cc(O)cc6o5)ccc4O)c3o2)cc1 [Compound 3, podocarpusflavone A] ?
Result: 43.6
